Target Desc: D(3) dopamine receptor (Homo sapiens)
Sequence (P35462 whole entry): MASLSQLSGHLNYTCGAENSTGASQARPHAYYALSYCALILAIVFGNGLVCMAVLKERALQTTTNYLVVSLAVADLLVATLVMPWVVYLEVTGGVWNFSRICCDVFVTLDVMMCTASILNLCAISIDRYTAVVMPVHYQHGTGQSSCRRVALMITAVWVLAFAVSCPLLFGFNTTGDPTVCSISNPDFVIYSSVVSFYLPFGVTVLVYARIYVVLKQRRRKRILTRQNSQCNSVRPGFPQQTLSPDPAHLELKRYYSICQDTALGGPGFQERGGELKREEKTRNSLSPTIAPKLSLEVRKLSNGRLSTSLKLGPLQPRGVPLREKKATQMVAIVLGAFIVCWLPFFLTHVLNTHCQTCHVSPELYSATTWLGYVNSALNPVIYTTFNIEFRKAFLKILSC
Observation Type: Ki (nM)

{"Structure As Smiles": "N#Cc1cc(N2CCN(CC[C@H]3CC[C@H](NC(N)=O)CC3)CC2)cc(C(F)(F)F)c1", "Target Desc": "D(3) dopamine receptor (Homo sapiens)", "Value Measured": 0.75}

----------
UniProtKB P14416: reported Ki for various compounds.
Sequence (P14416 whole entry): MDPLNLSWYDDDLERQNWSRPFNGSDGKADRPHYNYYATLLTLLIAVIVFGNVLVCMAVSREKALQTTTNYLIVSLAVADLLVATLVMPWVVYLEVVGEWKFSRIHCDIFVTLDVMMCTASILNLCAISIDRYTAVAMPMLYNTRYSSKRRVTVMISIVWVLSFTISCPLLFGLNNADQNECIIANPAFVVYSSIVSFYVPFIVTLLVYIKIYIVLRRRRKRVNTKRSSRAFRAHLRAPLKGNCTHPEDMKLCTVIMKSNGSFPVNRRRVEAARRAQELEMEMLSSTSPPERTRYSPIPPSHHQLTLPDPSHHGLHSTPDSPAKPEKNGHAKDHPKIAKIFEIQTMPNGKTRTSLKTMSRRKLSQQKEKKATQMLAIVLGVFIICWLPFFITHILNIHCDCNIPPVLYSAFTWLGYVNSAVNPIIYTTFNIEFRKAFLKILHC

{"Structure As Smiles": "N#Cc1cc(N2CCN(CC[C@H]3CC[C@H](NS(N)(=O)=O)CC3)CC2)cc(C(F)(F)F)c1", "Unit Of Measurement": "nM", "Ki": 37}
{"Structure As Smiles": "N#Cc1cc(N2CCN(CC[C@H]3CC[C@H](NC(=O)CN)CC3)CC2)cc(C(F)(F)F)c1", "Unit Of Measurement": "nM", "Ki": 5.4}
